Source of measurements: PubChem BioAssay (NCI)

# System: CCRF-CEM leukemia
# method_notes: NCI tumour cell line growth inhibition, 48 h
Overview of recorded TGI for various compounds
readout_name: TGI

{"columns": ["compound", "result"],
 "data": [
  ["O=C(CCc1nc(=S)[nH][nH]1)Nc1cccc(C(F)(F)F)c1", "> 100 µM"],
  ["COc1cc(OC)cc(-c2n/c(=C\\c3c(O)[nH]c4ccc(Cl)cc34)cc3c2=Nc2ccccc2-3)c1", "> 100 µM"],
  ["O=C1CCC(N2C(=O)c3cccc(NCCCC4CCN(CCNC(=O)c5cc6c(o5)C(=O)c5ccccc5C6=O)CC4)c3C2=O)C(=O)N1 (stereo not drawn)", "> 71.6 µM"]
]}

* * *

Overview of recorded TGI for various molecules
# Tested on: IGROV1 ovarian
# method_notes: NCI tumour cell line growth inhibition, 48 h

{"columns": ["molecule", "measurement_units", "comparison_sign", "TGI"],
 "data": [
  ["Nc1ccc(C(=O)NN2C(=O)C(Cl)C2c2cccc(O)c2)cc1 (centres undefined)", "µM", "=", 28.6],
  ["c1csc(-c2csc(-c3ccsc3)c2)c1", "µM", ">", 100],
  ["Nc1ncccc1-c1nc2ccc(-c3ccccc3)nc2n1-c1ccc(C2(N)CCC2)cc1", "µM", "=", 0.863],
  ["Cc1cc(C)c2c(=N)c3ccccc3n(CCCCCCO)c2n1", "µM", "=", 10.9]
]}

* * *

# Test system: M14 melanoma
# method_notes: NCI tumour cell line growth inhibition, 48 h

{"columns": ["compound", "GI50"],
 "data": [
  ["C=CCCCOC1[C@H](OCc2ccccc2)C(OCc2ccccc2)C(OC)O[C@@H]1CNC(=O)c1cccc(I)c1 (stereo partly drawn)", "60.2 µM"],
  ["CC(=O)[CH-]C(=O)Nc1ccccc1.CC(=O)[CH-]C(=O)Nc1ccccc1.CC[O-].CC[O-].[Ti+4]", "> 100 µM"],
  ["O=C1CCC(N2C(=O)c3cccc(NCCCC4CCN(CCNC(=O)c5cc6c(o5)C(=O)c5ccccc5C6=O)CC4)c3C2=O)C(=O)N1 (stereo not drawn)", "0.161 µM"]
]}

* * *

Overview of recorded TGI for various compounds
# Tested on: HOP-92 NSCLC
# method_notes: NCI tumour cell line growth inhibition, 48 h
readout_name: TGI

{"columns": ["compound", "readout_name", "result"],
 "data": [
  ["O=C(/C=C(\\O)c1ccccc1)/C(=C/C(=O)c1ccccc1)NN=C(c1ccccc1)c1ccccc1", "TGI", "> 100 µM"],
  ["CC(NNC(=O)c1ccncc1)c1ccc(Cl)c(Cl)c1 (stereo not drawn)", "TGI", "> 100 µM"],
  ["O=C(NCC(=O)N1CCOC1=O)OCc1ccccc1", "TGI", "> 100 µM"]
]}

* * *

# System: MCF7 breast
# method_notes: NCI tumour cell line growth inhibition, 48 h; in the data active = GI50 below about 0.43 µM; inactive = the rest
Classes used: t (active), f (inactive)

{"columns": ["compound", "class_name"],
 "data": [
  ["COc1ccc2c(c1)/C(=C\\c1c[nH]c3ccc(OC)cc13)C(=O)N2", "f"],
  ["Nc1cc2cccc[n+]2c2cccc(Cl)c12", "f"],
  ["C=CCn1c(=O)c2cnc(Nc3ccc(N4CCN(C)CC4)cc3)nc2n1-c1cccc(C(C)(C)O)n1", "t"],
  ["COc1cccc(C2C(C#N)=C(N)Oc3c2ccc2ccccc32)c1 (stereo unspecified)", "t"],
  ["O=c1c(-c2ccccc2)coc2cc(OC/C(=N/O)c3ccc(F)cc3)ccc12", "f"],
  ["CCSc1nc(N)c(C#N)c(-c2ccco2)c1C#N", "f"]
]}
